assay: Peg3 promoter luciferase inhibitors, potency, dose response, cell-based, HeLa, CREF/GAPDH counter-screen panel (AID 624167); settings: CREF/GAPDH counter-screens; GAPDH; mean of runs
Active and inactive are the calls of the source.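 The calls were made as follows: active = mean IC50 for reducing PEG3 promoter reporter signal at or below a set limit, with IC50 above the limit in both counter screens; inactive = the rest, including counter screen hits.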
Result category, one only: label 1 (active), label 0 (inactive)

Problem: Tell me the assay call for Cc1ccc(/C=C2\SC(=S)N(CCCC(=O)NNC(=O)c3ccccc3O)C2=O)cc1 please.
Solution: label 1

New cases:
Problem: Dear all, I need the recorded test outcome for COc1ccc2c(c1)c(=Cc1ccc(N(C)C)cc1)c1cc(-c3ccccc3)[n+](C)n12 , thank you.
Solution: label 1

Problem: Fill in: this test's call for O=C(CCl)N1c2ccccc2Sc2ccc3ccccc3c21 is ___
Solution: label 1

Problem: What is the recorded call for this compound in the test? CC1=NOC(=O)/C1=C\c1ccc(-c2ccccc2Br)o1
Solution: label 1

Problem: How was CCOc1cccc(/C=N/NC(=S)Nc2cc(S(=O)(=O)N3CCOCC3)ccc2N2CCOCC2)c1O classified in this test?
Solution: label 0

Problem: Test call for this compound, please: COc1ccc(/C=C2/CCCC(CN(C)C)C2=O)cc1 (stereo not given)
Solution: label 0

Problem: Fill in: this test's call for O=C1C=CC(=O)N1c1ccc(-c2nc3ccccc3o2)cc1 is ___
Solution: label 0

Problem: # outcome recorded in this test, key = COc1cc(Nc2c3ccccc3nc3ccccc23)cc(OC)c1OC
Solution: label 0

Problem: Hi, do you know how O=C(CSC1c2ccccc2-c2ccccc21)N/N=C/c1ccccc1O came out in this test?
Solution: label 0

Problem: Check the results log: what was the call for O=C(O)c1ccc(CN2C(=O)c3cccc4c([N+](=O)[O-])ccc(c34)C2=O)cc1 ?
Solution: label 1

---

Parameter pIC50: see the listing below.
system: PEG-3; assay: Peg3 promoter luciferase inhibitors, potency, dose response, cell-based, HeLa, CREF/GAPDH counter-screen panel (AID 624167); conditions: HeLa PEG-Prom luciferase reporter, overnight, CREF/GAPDH counter-screens, run 1, dose range 1, individual replicate IC50 per panel
// pIC50: -log10(molar conc.)

Worked examples follow.
Problem: Param readout= pIC50; system= PEG-3; entry= CCCCNc1c(-c2cccc(Sc3ccc(OC)cc3)c2)nc2ccccn12 ; returns value.
Solution: 4.78

Problem: Request: pIC50, test system PEG-3, entry Cc1nc(-c2ccc(F)cc2)c(CC(=O)N(C)CC(=O)Nc2ccc(Cl)c(C(F)(F)F)c2)s1
Solution: 4.59

Problem: Query for PEG-3: what pIC50 does the record show for CC(C)c1ccc(/C=N/Nc2ccc(C(=O)O)cc2)cc1 ?
Solution: 4.96

Next:
Problem: Under PEG-3: pIC50 value of Cc1ccccc1OCC(O)CNC1CCC(NCC(O)COc2ccccc2C)CC1 (centres undefined) ?
Solution: 5.01

Problem: Form field - read-out: pIC50; system: PEG-3; submitted item: COc1cc(/C=C/C(=O)N2CCC=CC2=O)cc(OC)c1OC
Solution: 4.80

Problem: Form entry - test system: PEG-3; read-out: pIC50; compound: O=C(c1ccccc1)N(C(=O)c1ccccc1)c1ncnc2c1C(c1ccccc1)c1c(ccc3ccccc13)O2 (centres undefined)
Solution: 5.36

Problem: Could you share what pIC50 was measured for O=C(Nc1ccccc1)c1nc[nH]c1C(=O)NCCCCCCNC(=O)c1[nH]cnc1C(=O)Nc1ccccc1 , tested on PEG-3?
Solution: 5.62

Problem: # query: pIC50 | item CC(C)CC1C(=O)N(Cc2cn(Cc3ccco3)nn2)CCS(=O)(=O)N1Cc1ccc(-c2ccc(F)cc2)cc1 (centres undefined) | system: PEG-3
Solution: 4.98

Problem: Item Cc1cc(Br)ccc1NC(=O)CNC(=O)Cn1ncc(Cl)c(Cl)c1=O with PEG-3 - pIC50?
Solution: 5.08
